# Test system: T1, rat PAI-1 (rat, UniProt P20961 24-402)
# T1 sequence: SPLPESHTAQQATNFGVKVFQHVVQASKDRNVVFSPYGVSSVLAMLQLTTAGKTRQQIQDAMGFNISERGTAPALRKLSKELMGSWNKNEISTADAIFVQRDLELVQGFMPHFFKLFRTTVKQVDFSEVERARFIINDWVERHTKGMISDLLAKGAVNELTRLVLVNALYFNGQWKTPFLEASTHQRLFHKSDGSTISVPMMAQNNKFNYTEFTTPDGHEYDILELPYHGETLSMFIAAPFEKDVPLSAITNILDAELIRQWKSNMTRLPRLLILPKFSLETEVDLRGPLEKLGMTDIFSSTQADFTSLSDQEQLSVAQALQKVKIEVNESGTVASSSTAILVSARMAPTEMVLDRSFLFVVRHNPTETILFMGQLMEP
# Method: cell-based or functional assay
IC50 ratio rat/human reference
The reply should be a number, written without any unit.

Report IC50 ratio rat/human, nothing else, for this binder: Antibody 13, scFv (scFv, V domains shown) VH: QVQLQQSGAEVKKPGSSVKVSCKASGGTFSSYAISWVRQAPGQGLEWMGGIIPTFGTANYAQKFQGRVTITADESTSTAYMELSDLRSEDTAVYYCAREKRQWLEGHFDYWGRGTPVTVSS VL: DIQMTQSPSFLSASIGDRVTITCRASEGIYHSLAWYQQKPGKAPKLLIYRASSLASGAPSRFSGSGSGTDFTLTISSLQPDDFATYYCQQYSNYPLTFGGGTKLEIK
48.6

Report IC50 ratio rat/human, nothing else, for this binder: Antibody 02, IgG1, not germlined (antibody, V domains shown) VH: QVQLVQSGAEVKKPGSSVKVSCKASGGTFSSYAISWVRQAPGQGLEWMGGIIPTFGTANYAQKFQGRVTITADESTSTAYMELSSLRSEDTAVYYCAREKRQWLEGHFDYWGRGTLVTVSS VL: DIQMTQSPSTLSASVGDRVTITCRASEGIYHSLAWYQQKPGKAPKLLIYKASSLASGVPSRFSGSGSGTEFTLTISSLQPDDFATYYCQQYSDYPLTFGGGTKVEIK
317

Continuing:
Report IC50 ratio rat/human, nothing else, for this binder: Antibody 03, scFv (scFv, V domains shown) VH: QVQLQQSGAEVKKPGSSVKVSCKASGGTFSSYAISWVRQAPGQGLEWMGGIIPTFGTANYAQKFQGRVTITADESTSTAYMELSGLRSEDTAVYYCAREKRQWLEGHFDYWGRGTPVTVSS VL: DIQMTQSPSFLSASIGDRVTITCRASEGIYRSLAWYQQKPGKAPKLLIYKASSLASGAPSRFSGSGSGTDFTLTISGLQPDDFATYYCQQYSNYPLTFGGGTKLEIK
165

Report IC50 ratio rat/human, nothing else, for this binder: Antibody 21, scFv (scFv, V domains shown) VH: PVQLQQSGAEVKKPGSSVKVSCKASGGTFSSYAISWVRQAPGQGLEWMGGIIPTFGTANYAQKFQGRVTITADESTSTAYMELSGLRSEDTAVYYCAREKRQWLEGHFDYWGRGTPVTVSS VL: DIQMAQSPSFLSASIGDRVTITCRASEGIYHNLAWYQQKPGKAPKLLIYRASSLASGAPSRFSGSGSGTDFTLTISSLQPDDFATYYCQQYSNYPLTFGGGTKLEIK
12

Report IC50 ratio rat/human, nothing else, for this binder: Antibody 02, scFv (scFv, V domains shown) VH: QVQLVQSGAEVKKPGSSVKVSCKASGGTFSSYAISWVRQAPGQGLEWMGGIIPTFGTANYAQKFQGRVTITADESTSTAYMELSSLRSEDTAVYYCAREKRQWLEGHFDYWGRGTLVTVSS VL: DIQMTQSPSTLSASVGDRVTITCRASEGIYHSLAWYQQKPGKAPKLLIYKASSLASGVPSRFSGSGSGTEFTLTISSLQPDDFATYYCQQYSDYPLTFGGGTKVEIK
891
